Test system: HIV-1/103-Asn
Test: Inhibition of HIV-1 induced syncytium formation in CEM cells, RT mutant 103-Asn
Assay type: cell-based
Conditions: Human immunodeficiency virus 1, CCRF-CEM, 96 h
Attribute measured: EC50 (µg/mL)
Answer format: numeric, µg/mL implied, no suffix.

Which EC50 is reported for this compound? CSSC(=Nc1ccc(Cl)c(C=NOC(C)C)c1)c1ccoc1C
0.85

Please do the same for CSSC(=Nc1ccc(Cl)c(C=NOC(C)(C)C)c1)c1ccoc1C as well.
1.33

Please do the same for CSSC(=Nc1ccc(Cl)c(OCC=C(C)C)c1)c1ccoc1C as well.
0.15

Please do the same for CSSC(=Nc1ccc(Cl)c(OCCC(C)C)c1)c1ccoc1C as well.
0.65

FYI, the data here is from patent US6017947A.
